This collection of values is drawn from patent EP0492136A2.

MEASURED TARGET: HIV-1 protease (Human immunodeficiency virus type 1 group M subtype B)
pIC50: −log10 of the molar value.
Returns one of T or F; T when pIC50 is >= 6.

Please tell me: is the compound O=C(NC1CCCCC1Nc1ccccn1)C(Cc1ccccc1)CC(O)CC(Cc1ccccc1)C(=O)NC1CCCCC1Nc1ccccn1 (stereo not shown) [Example 325] at or over 6 in terms of pIC50?
T

Quick check, pIC50 >= 6? CC(=O)NC1CCCCC1NC(=O)C(Cc1ccccc1)CC(O)CC(Cc1ccccc1)C(=O)NC1CCCCC1NC(C)=O (stereo not shown) [Example 326]
T

Textbook exercise: given the entry O=C(NC1CCCCC1Nc1ccncc1)C(Cc1ccccc1)CC(O)CC(Cc1ccccc1)C(=O)NC1CCCCC1Nc1ccncc1 (stereo not shown) [Example 323] , state whether its pIC50 is greater than or equal to 6.
T

Determine whether this compound has pIC50 no lower than 6: CC(C)CNC(=O)[C@H](Cc1ccccc1)CC(O)C[C@@H](Cc1ccccc1)C(=O)NCC(C)C (relative stereo) [Example 331]
T

I'd appreciate it if you could say whether CCOC(=O)CN(Cc1ccccc1)CC(O)(CO)CN(CC(=O)OCC)Cc1ccccc1 [Example 55] has pIC50 at least equal to 6.
F

Quick check, pIC50 >= 6? CC(C)C(NC(=O)C(Cc1ccccc1)CC(O)CC(Cc1ccccc1)C(=O)NC(C(=O)NCc1nc2ccccc2[nH]1)C(C)C)C(=O)NCc1nc2ccccc2[nH]1 (stereo not shown) [Example 328]
T

Determine whether this compound has pIC50 no lower than 6: COC(=O)[C@H](Cc1ccccc1)NC(=O)[C@@H](NC(=O)[C@H](Cc1ccccc1)CC(O)C[C@@H](Cc1ccccc1)C(=O)N[C@H](C(=O)N[C@@H](Cc1ccccc1)C(=O)OC)C(C)C)C(C)C [Example 110]
T
